Tested on: Escherichia coli K-12 BW25113
Experiment: relative growth (OD600 normalised to plate interquartile mean) (fraction); higher = less growth inhibition, active = 0.2 or less
Conditions: 50 µM; LB; incubation time: overnight (16-24 h)
Hit rate of the full screen: of about 39,000 compounds, about 220 (0.56%) showed activity. For the sample, actives were picked, then their nearest neighbours and some compounds at random.
Param threshold (1) applies to relative growth; output TRUE when value >= threshold, FALSE when value < threshold.

Some solved cases for reference:
| molecule | category |
| --- | --- |
| NCC1OC(OC2C(CO)OC(OC3C(O)C(N)CC(N)C3OC3OC(CO)C(O)C(O)C3N)C2O)C(N)C(O)C1O.O=S(=O)(O)O (stereo not given) | FALSE |
| Cc1cc(=O)c(C(=O)N[C@@H](C(=O)N[C@@H]2C(=O)N3C(C(=O)O)=C(CSc4nnnn4C)CS[C@H]23)c2ccc(O)cc2)c[nH]1 | FALSE |
| CO/N=C(\C(=O)N[C@@H]1C(=O)N2C(C(=O)O)=C(C)CS[C@H]12)c1csc(N)n1 | FALSE |

Consider now this further molecule.
Please tell me: is the molecule CC1=C(C(=O)O)N2C(=O)C(NC(=O)C(N)C3=CCC=CC3)C2SC1 (stereo not given) at or over 1 in terms of relative growth? TRUE

====

Tested on: Escherichia coli K-12 BW25113;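 further: Wild-type cells incubated without shaking, value is the mean of two biological replicates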
Assay: relative growth (OD600 normalised to plate interquartile mean) (fraction); higher = less growth inhibition, active = 0.2 or less
Conditions: 50 µM; LB; incubation time: overnight (16-24 h)
Out of some 39,000 compounds screened, about 220 (0.56%) showed activity. This is one part of a sample in which actives are shown more often than they occur.
Catalogue of relative growth values
Lab note: record just the number, no unit beside it.

| compound | study-target | readout-kind | quantitative-result |
| --- | --- | --- | --- |
| CCC1OC(=O)C(C)C(OC2CC(C)(OC)C(O)C(C)O2)C(C)C(OC2OC(C)CC(N(C)C)C2O)C(C)(O)CC(C)CN(C)C(C)C(O)C1(C)O (stereo unspecified) | Escherichia coli K-12 BW25113 | relative growth | 0.0435 |

Record summary for O=C(O)c1ccc2c(c1)OCO2 : reported relative growth = 0.853

The compound O=C1OCCN1N=Cc1ccc([N+](=O)[O-])o1 showed relative growth equal to 0.0457

Lab book: relative growth of CO[C@H]1CN(C)C(=O)c2cc(NS(=O)(=O)CC(F)(F)F)ccc2OC[C@@H](C)N(Cc2nccs2)C[C@@H]1C noted as 0.962

Recorded result, O=C1CN(N=Cc2ccc(-c3ccc([N+](=O)[O-])cc3)o2)C(=O)[N-]1.[Na+] , relative growth: 1.06

Recorded relative growth (compound CCC(=O)Nc1ccc2c(c1)C(=O)N(C)C[C@H](OC)[C@H](C)CN(C(=O)CN1CCOCC1)[C@H](C)CO2 ): 0.974

response.value for COc1cc(Cc2cnc(N)nc2N)cc(OC)c1OC (field: relative growth) = 0.044

The reported relative growth of the compound C[C@H]1CN([C@@H](C)CO)C(=O)c2cc(NC(=O)Cn3cnnn3)ccc2O[C@@H]1CN(C)Cc1ccncc1 was 1.02

Looking up CNC(=O)NCc1ccc2c(c1)OCO2 , I see its relative growth listed as 1

So for C[C@H](CO)N1C[C@H](C)[C@@H](CN(C)Cc2ccc3c(c2)OCO3)Oc2c(NC(=O)Nc3cccc4ccccc34)cccc2C1=O , the logged relative growth turned out to be 1.01

The compound listed as CC1(C)SC2C(N3C(=O)C(c4ccccc4)NC3(C)C)C(=O)N2C1C(=O)[O-].[K+] (stereo unspecified) shows relative growth equal to 0.0443

Lab note: CN(C)CC(=O)N[C@@H]1C=C[C@H](CC(=O)NCCN2CCCCC2)O[C@@H]1CO gave relative growth of 0.999

The compound identified as Cc1noc(C)c1NC(=O)N(C)C[C@@H]1OCCCC[C@H](C)Oc2ccc(NC(=O)CCC(F)(F)F)cc2C(=O)N([C@H](C)CO)C[C@@H]1C registered its relative growth at 0.979

relative growth measured on c1ccc(-c2ccnc(-c3cc(-c4ccccc4)ccn3)c2)cc1 = 0.99

Input COc1cc(CN)cc(OC)c1OC . Output relative growth: 1

# relative growth of CC[C@H]1OC(=O)[C@H](C)[C@@H](O[C@H]2C[C@@](C)(OC)[C@@H](O)[C@H](C)O2)[C@H](C)[C@@H](O[C@@H]2O[C@H](C)C[C@H](N(C)C)[C@H]2O)[C@](C)(O)C[C@@H](C)CN(C)[C@H](C)[C@@H](O)[C@]1(C)O = 0.0562
